# Study target: NADPH oxidase 5 (Homo sapiens)
# Assay text: NOX5-dependent H2O2 signal modulators, primary screen, NOX inhibitor project, cell-based, HEK293-NOX5, Amplex Red fluorescence (AID 1161)
# Condition details: HEK293-NOX5, ionomycin, 45 min, higher = more signal
# z-score >= 0.02 gives 1, anything below gives 0

| Molecule | Qualitative label |
| --- | --- |
| COC(=O)[C@H](C)NC(=O)CCC1CC(OC(=O)NCc2cccc3ccccc23)CC2(CCCC(COC(=O)NCCc3ccc(Cl)cc3)O2)O1 (stereo partly specified) | 1 |
| CC(C)[Si]1(C(C)C)O[C@@H](c2ccccc2)c2cc(C3CC3)nc(-c3ccccc3)c21 | 1 |
| CO[C@H]1COC(=O)[C@@H]2CCCN2C(=O)[C@@H](C)COC(=O)CC=C[C@@H]1C | 0 |
| C=C(CCCC)C(=O)CC[C@@H](OC(C)=O)c1cccc(OCCO)c1 | 0 |
| COC(=O)C1=C(C)[C@@H](O)[C@@H](C)[C@H](c2c(OC)c(OC)c(C)c(OC)c2OC)O1 | 1 |
| CCCNC(=O)OC[C@H]1O[C@H](CCON=C2[C@H]3CCn4c(=O)n(-c5ccccc5)c(=O)n4[C@H]3[C@H](O)[C@@H]3O[C@H]23)C=C[C@@H]1Oc1ccc(OC)cc1 | 0 |

Confirm if z-score reported for the molecule `O=C(CS)NCCCCCNC(=O)[C@@H]1C[C@@H]2C(=O)N[C@@H](Cc3ccccc3)C(=O)N2[C@@H]1c1ccc(O)cc1` is 0.02 or above.
1

Would you say `CO[C@H]1COC(=O)[C@H](C)COC(=O)CC=C[C@@H](C)[C@H](OC)COC(=O)CC=C[C@@H]1C` shows z-score at minimum 0.02?
1

Has `CC(C)CN1CCc2nc(-c3ccccc3)c3c(c2CC1)CO[C@@H](C)C3` a recorded z-score greater than or equal to 0.02?
0

Check this molecule for z-score at or above 0.02: Cc1cc2c(nc1C)CCCN2CC(C)ON=C1[C@H]2CCn3c(=O)n(-c4ccccc4)c(=O)n3[C@H]2[C@H](O)[C@@H]2O[C@H]12 (stereo partly specified)
0

Hi team, for `CCOC(=O)CCN1C(=O)[C@H]2[C@H]3[C@H](O)[C@H](O)CC(=NNC(=O)OCc4ccc(OC)cc4)[C@@H]3CC[C@H]2C1=O` , is the recorded z-score at or above 0.02?
0

Decide: z-score of `COc1ccc(O[C@@H]2[C@H](O)CO[C@H]2C=CC#Cc2ccccc2)cc1` >= 0.02?
1

====

# Study target: Alpha-bungarotoxin (Bungarus multicinctus) (UniProt P60615)
# Sequence (P60615 whole entry, looked up): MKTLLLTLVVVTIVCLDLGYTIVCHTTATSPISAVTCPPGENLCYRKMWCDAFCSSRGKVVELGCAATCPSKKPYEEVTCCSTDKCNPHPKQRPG
# Assay text: alpha-bungarotoxin binders on microarray, profiling panel, artefact control for SMM control protein annotation, biochemical, small-molecule microarray, Alexa647 label, 635/667 nm fluorescence (AID 1117)
# Condition details: alpha-BTX-A647 binding fluorescence, higher = more signal
Measurement kind: composite z-score
# respond with the number and nothing more

Observe how each entry below is paired with its result.
| Compound | composite z-score |
| --- | --- |
| CC(C)=CCCC(C)=CCON=C1C[C@@H](O)[C@@H](O)[C@@H]2[C@@H]3C(=O)N(C[C@@H]4CCCO4)C(=O)[C@@H]3CC[C@@H]12 | 0.488 |
| CCN1C(=O)[C@H]2[C@H]3[C@H](O)C=CC(=O)[C@@H]3CC[C@H]2C1=O | 0.45 |
| CC(C)=NOCc1ccc(-c2cc(-c3ccccc3)no2)cc1 | -0.0299 |
| COCCCNC(=O)[C@@]1(CCS(=O)(=O)c2ccccc2)N=C(c2ccc(OCCCO)cc2)O[C@H]1c1ccccc1 | 2.44 |
| C[C@@H]1C=CCC(=O)OC[C@H](C)C(=O)OC[C@H]2O[C@H]1C=C[C@H]2O | -0.108 |
| CC(CCN1CCc2nc(-c3ccccc3)c(-c3ccccc3)cc2C1)=NOC(C)CN1CCCCc2nc(C)c(C)cc21 (stereo not given) | 0.799 |

Item: `CC(=O)OC[C@H]1O[C@H](CCON=C[C@@H](C)[C@H](OCc2ccccc2)C(C)C)C=C[C@@H]1OC(C)=O` | composite z-score: 0.13

Given item `O=C1[C@H]2[C@H]3[C@H](O)[C@H](O)CC(=NO[C@@H]4O[C@H](CO)[C@@H](O)[C@H](O)[C@H]4O)[C@@H]3CC[C@H]2C(=O)N1Cc1ccc2c(c1)OCO2` , the value recorded as its composite z-score is 0.378

response.value for c1ccc(C2NCCc3c2[nH]c2ccccc32)cc1 (stereo not given) (field: composite z-score) = 0.128

# compound O[C@@H](Cc1ccccc1)[C@H]1C2C=CCCC(c3ccccc3)=C2CN1Cc1cccc(Cl)c1 (stereo not given in full) ; its composite z-score = 0.475

Sure, the documented composite z-score for `CC(CCC(=O)OC[C@H]1O[C@H](C#Cc2ccccc2)C=C[C@@H]1Oc1ccc(C)cc1)=NO[C@@H](C)c1cn([C@H](CO)Cc2ccccc2)nn1` is 1.76

// field: composite z-score; key: `O=C1O[C@@H](c2ccccc2)[C@@H](c2ccccc2)N2[C@@H](c3ccccc3OCCO)[C@]3(C(=O)Nc4ccc(C#CCCO)cc43)[C@@H](C(=O)O)[C@H]12` ; value = 2.53

Per the records, this compound ( `O=C1[C@H]2[C@H]3[C@H](O)[C@H](O)CC(=NOCc4ccccc4)[C@H]3CC[C@H]2C(=O)N1C[C@@H]1CCCO1` ) has composite z-score equal to 0.0902

Sample `[N-]=[N+]=NCc1ccccc1[C@@H]1OC(c2ccc(OCCCO)cc2)=N[C@]1(Cc1ccccc1)C(=O)N1CCOCC1` ; composite z-score observed: 1.62

Value of composite z-score reported for the compound `O=C1[C@H]2[C@H]3[C@H](O)[C@H](O)CC(=NOC[C@@H](O)COCc4ccco4)[C@H]3CC[C@H]2C(=O)N1Cc1ccc2c(c1)OCO2` is -0.147

====

# Assay text: binders of probe aFGF10 on microarray, primary screen, stem cell growth factor project, biochemical, small-molecule microarray, fluorescence 635/667 (AID 1071);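 note: score merges 667 nm spot intensity and signal to noise from triplicate slides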
# Condition details: higher = more signal
Measured composite z-score, listed per entry.
Just the number, please.

Observe how each entry below is paired with its result.
| Compound | Recorded measurement |
| --- | --- |
| COc1ccccc1CN1C(=O)c2ccccc2[C@@H](C(=O)NCC(F)(F)F)[C@@H]1c1ccc(CO)cc1 | 0.0992 |
| CC(C)NC(=O)[C@@H]1c2ccccc2C(=O)N(CC23CC4CC(CC(C4)C2)C3)[C@H]1c1ccc(CO)cc1 | 0.0767 |
| COCC(=C=CC[C@@H](O)c1ccccc1OCCO)CCO | 0.492 |
| C=CC[C@]1(C(=O)NCc2ccccc2)N=C(c2ccc(OCCCO)cc2)O[C@H]1c1ccccc1 | -0.439 |

Short answer for `CC(C)NC(=O)[C@@]1(c2ccc([N+](=O)[O-])cc2)CC(=O)N(CC23CC4CC(CC(C4)C2)C3)[C@@H]1c1ccc(CO)cc1I` : composite z-score was 0.252

GET /value?item= `CC(=O)C[C@H](O)[C@@H](NC(=O)OC(C)(C)C)C(C)C` &field=composite z-score returns -0.328

====

# Assay text: binders of probe aFSTL3 on microarray, primary screen, stem cell growth factor project, biochemical, small-molecule microarray, fluorescence 635/667 (AID 1064);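 note: measures binding of the biotinylated anti-FSTL3 antibody to printed compounds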
# Condition details: higher = more signal
Recorded measurements of composite z-score, one per entry
The reply should be a number, written without any unit.

Sample answers from the record:
| Chemical string | composite z-score |
| --- | --- |
| O=C1O[C@@H](c2ccccc2)[C@@H](c2ccccc2)N2[C@@H](c3ccccc3OCCO)[C@]3(C(=O)Nc4ccc(C#CCCO)cc43)[C@@H](C(=O)O)[C@H]12 | -1.32 |
| CCOC(=O)CCN1C(=O)[C@H]2[C@H]3[C@H](O)[C@H](O)CC(=NNC(=O)OCc4ccc(OC)cc4)[C@@H]3CC[C@H]2C1=O | -0.468 |
| C[C@@H](c1ccccc1)N1C(=O)[C@H]2[C@H]3[C@H](O)C=CC(=O)[C@@H]3CC[C@H]2C1=O | -0.663 |
| CCOC(=O)CCN1C(=O)[C@H]2[C@H]3[C@H](O)[C@H](O)CC(=NOC[C@@H](O)COCc4ccco4)[C@H]3CC[C@H]2C1=O | -0.528 |
| CC(=O)OC[C@H]1O[C@H](CCON=C[C@@H](C)[C@H](OCc2ccccc2)C(C)C)C=C[C@@H]1OC(C)=O | -0.567 |

Consider the record given below.
The compound identified as `C=CCNC(=O)[C@H]1[C@@H]2C(=O)O[C@@H](c3ccccc3)[C@@H](c3ccccc3)N2[C@@H](c2ccc(O)cc2)[C@]12C(=O)N(C(=O)OCCOC)c1ccc(C#CC3=CCCCC3)cc12` registered its composite z-score at 0.484
